Give growth inhibition for every item shown.
# Assay Name: NCI Yeast Anticancer Drug Screen. Data for the mec2-1 strain (AID 157)
# Condition Parameters: S. cerevisiae mec2-1 strain, hits give high values; at 50.0 µM unless noted
Compounds without any hit were thinned out: in the full panel of roughly 79,000, 15% have a hit.
Report only the number, with the unit % understood.

Ask | I am curious: what growth inhibition value has been reported for CCOC(=O)C(Sc1ccc(C)cc1)C(Sc1ccc(C)cc1)C(=O)OCC (configuration not stated) ?
Reply | -6.6

Ask | Which value of growth inhibition has been reported for "Cc1ccc(NC(=O)N(C)C)c(C)c1" in the records?
Reply | -37

Ask | For the compound "O=S(=O)(O)c1cc(N=[N+]([O-])c2ccc(N=Nc3ccccc3)cc2S(=O)(=O)O)ccc1/C=C/c1ccc(N=[N+]([O-])c2ccc(N=Nc3ccccc3)cc2S(=O)(=O)O)cc1S(=O)(=O)O" , what growth inhibition is on record?
Reply | 11.9

Ask | If you can, please state the reported growth inhibition value of "O=[N+]([O-])c1ccc[nH]1" .
Reply | -9.95

Ask | Would you mind telling me what growth inhibition value was observed for O=C1C2CCC2C(=O)N1c1ccc2ccccc2c1 (configuration not stated) ?
Reply | -1

Ask | Quick check: growth inhibition of CCC12C=CCN3CC[C@@]4(c5cc([C@@]6(C(=O)OC)C[C@@H]7CN(CCc8c6[nH]c6ccccc86)C[C@](O)(CC)C7)c(OC)cc5N(C)[C@H]4[C@@](O)(C(=O)NCCCCCCCCCCCC(=O)O)[C@@H]1O)C32 (some centres not stated) ?
Reply | 19.8

Ask | // returns reported growth inhibition for input COC(=O)c1cc(C(=O)OC)c(CC(=O)C(=O)NC2C3CC4CC(C3)CC2C4)nc1CC(=O)C(=O)NC1C2CC3CC(C2)CC1C3 (configuration not stated)
Reply | 25.2

Ask | Find the recorded growth inhibition belonging to "Cc1cccc(NC(=O)Nc2ccccc2Cl)n1" and report it.
Reply | -3.6

Ask | Suppose we examine the compound "Cc1nc(-c2cccnc2)sc1C(=O)CC(=O)C(=O)Nc1cccc(NC(=O)C(=O)CC(=O)c2sc(-c3cccnc3)nc2C)n1" ; what growth inhibition value has been reported?
Reply | -0.75

Ask | Look up growth inhibition for this compound: CC/C=N\N1C(N)=C(C#N)C(C#N)(C#N)C1CC (configuration not stated)
Reply | 10.2

Ask | Using the record for "CC1=CC(=C2C=C(C)C(=O)C(C)=C2)C=C(C)C1=O" , report its growth inhibition.
Reply | -6.65

Ask | Look up growth inhibition for this compound: "O=C(CCl)Oc1ccc2ccccc2c1"
Reply | -2.05

Ask | Please give the measured growth inhibition for this compound: "N#CCCOc1ccc(N)cc1"
Reply | -5.2

Ask | Which growth inhibition reading was recorded for the compound OCCNc1ncnc2c1ncn2C1OC(CO)C(O)C1O (configuration not stated) ?
Reply | 5.25

Ask | State the recorded growth inhibition for this entry: O=C(NCCCl)NC1C(O)OC(CO)C(O)C1O (configuration not stated)
Reply | 96

Ask | Quick one: growth inhibition of "CC(C)CCNc1ccccc1" ?
Reply | -7.65

Ask | Sample "CC(=O)C1=CCCCC1" — what was its growth inhibition?
Reply | -2.8

Ask | Which growth inhibition value belongs to "CCCCCCCCCCCC" ?
Reply | 25.4

Ask | Record request: growth inhibition value, item "O=c1cc(C(F)(F)F)[nH]c2ccc(F)cc12"
Reply | -10.4

Ask | If you can, please state the reported growth inhibition value of "c1ccc2[nH]c(CSc3nc4ccccc4s3)nc2c1" .
Reply | 17.2

Ask | Reported growth inhibition, compound OCC1OCOC(CO)(CO)C1O (configuration not stated) : ____
Reply | 0.05

Ask | Reported growth inhibition, compound CC(=O)OCC1OC(n2c3c(c(-c4cccc5ccccc45)c(C#N)c2=S)CCCC3)C(OC(C)=O)C(OC(C)=O)C1OC(C)=O (configuration not stated) : ____
Reply | -5.3

###

# Assay Name: NCI Yeast Anticancer Drug Screen. Data for the rad50 strain (AID 155);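 note: 0% = growth of vehicle-only cultures of the same strain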
# Condition Parameters: S. cerevisiae rad50 strain growth inhibition, hits give high values; at 50.0 µM unless noted
Compounds without any hit were thinned out: in the full panel of roughly 79,000, 15% have a hit.
Measured Metric: growth inhibition (%)
Give the quantity in %, number only.

Ask | For the compound shown here, "Cc1c2c(c(C)c3c1C(=O)c1cc4c(cc1C3=O)OCO4)OCO2" , give the reported growth inhibition.
Reply | -9.1

Ask | // lookup growth inhibition for "Cc1cc(CSC(=N)N)c(CSC(=N)N)cc1C"
Reply | 9.75

Ask | What value of growth inhibition has been recorded for this entry: "Nc1[nH]c(=O)[nH]c(=O)c1[N+](=O)[O-]"
Reply | 5.4

Ask | Quick one: growth inhibition of "CCOC(=O)C(CCc1ccccc1[N+](=O)[O-])(CCc1ccccc1[N+](=O)[O-])C(=O)OCC" ?
Reply | 12.3

Ask | Which growth inhibition is reported for this compound? "CCCc1ccc(C)c(CCC)c1O"
Reply | -5.95

Ask | Entry under review: "N#Cc1cccc2c1Nc1ccccc1S2" . Reported growth inhibition?
Reply | -9.75

Ask | Please look up its growth inhibition: "Cc1nc(-c2cccnc2)sc1C(=O)CC(=O)C(=O)Nc1cccc(NC(=O)C(=O)CC(=O)c2sc(-c3cccnc3)nc2C)n1"
Reply | 20.2

Ask | For the compound "CCCCCCCCCCCCC" , what growth inhibition is on record?
Reply | -36.4

Ask | Look at this compound and give its reported growth inhibition. C=C(C)C1CC[C@@](C)(O)[C@H](C#N)C1 (some centres not stated)
Reply | 6.15

Ask | Consider the compound O=C1c2ccccc2CC(c2ccccc2)N1c1ccccc1 (configuration not stated) and give its measured growth inhibition.
Reply | 51.1

Ask | Suppose we examine the compound NC1=NCC(CN2CCCCC2)O1 (configuration not stated) ; what growth inhibition value has been reported?
Reply | 7.1

Ask | # growth inhibition lookup, item CC(=O)OC(C#N)c1ccco1 (configuration not stated)
Reply | -11.4

###

# Assay Name: NCI Yeast Anticancer Drug Screen. Data for the mec2-1 strain (AID 157)
# Condition Parameters: S. cerevisiae mec2-1 strain; at 50.0 µM unless noted
The panel holds about 79,000 compounds, 15% with a hit somewhere; the sample as a whole holds those more often. Active and inactive are the calls of the source. No stated cut-off is given here; in the data, active means growth inhibition above about 70%; inactive means the rest.
Can you answer with just one of these options? active, inactive

Ask | Kindly provide the recorded test outcome for the following compound: Cc1cccc(NC(=O)C(=O)C(C(=O)c2ccc3ccccc3c2)C2OC(=O)c3ccccc32)c1C (stereo not drawn)
Reply | inactive

Ask | Outcome logged for CC(C)=CCCC(C)CCO (stereo not drawn) in this assay:
Reply | inactive

Ask | Assay outcome for "CC(=O)O[C@@H]1C(=O)C=C(C)[C@@H]2[C@@H](OC(=O)C=C(C)C)[C@H]3OC(=O)C[C@H]4[C@@H](C)[C@@H](O)[C@]5(O)OC[C@]34[C@H]5[C@@]12C" : what was it?
Reply | active

Ask | # outcome recorded in this test, key = "CCCCCCCCCOc1ccc(C=Nc2ccc(C)cc2)cc1"
Reply | inactive

Ask | Tell me the assay call for "NNC(=O)CC(=O)NN" please.
Reply | inactive

Ask | How did this test come out for "COC(=O)CCn1cnc2c(SC)ncnc21" ?
Reply | inactive

Ask | What did this assay record as the result for "C(=C1CCCCC1)c1ccccn1" ?
Reply | inactive

Ask | What call does the record list for CCC(O)(c1ccccc1)C(O)(CC)c1ccccc1 (stereo not drawn) ?
Reply | inactive

Ask | Name the outcome recorded for COc1ccc(NC(=O)C(C)Oc2ccc(OCC3CCCCC3)cc2)cc1 (stereo not drawn) in the assay.
Reply | inactive

Ask | // param item: "C=CCSC[C@H](NC(=O)COc1ccccc1)C(=O)NC(C(=O)OCc1ccc([N+](=O)[O-])cc1)=C(C)C" ; yields the recorded call
Reply | inactive

Ask | I'd appreciate the recorded outcome for "COc1cc2c(cc1OC)C(c1c(-c3c(Cl)cccc3Cl)noc1C)=NCC2" from this test.
Reply | inactive

Ask | Per the records of this test, what outcome belongs to "O=[N+]([O-])c1ccc(NN=C2CCCCC2)c([N+](=O)[O-])c1" ?
Reply | inactive

Ask | Assay result, entry "Cn1c2ccc(Cl)cc2c2ccc3c(c21)C(=O)C=CC3=O" — outcome?
Reply | inactive

Ask | Which outcome was assigned to "O=C(/C=C/c1ccccc1)CSc1ncn[nH]1" in this test?
Reply | inactive

Ask | For "CC(=O)C[N+](C)(C)C" , which call appears in the assay record?
Reply | inactive

Ask | Which outcome did this test record for the compound "Nc1nnc2nc(C3(c4nc5nnc(N)n5[nH]c4=O)CCCC3=O)c(=O)[nH]n12" ?
Reply | inactive

Ask | Per the assay record, what outcome was assigned to "CSc1nnc(CCC(=O)Nc2cc(Cl)ccc2Cl)o1" ?
Reply | inactive

Ask | What was the test verdict on CC(O)CCC(=O)c1nc2ccccc2s1 (stereo not drawn) ?
Reply | inactive

Ask | For "Cc1cc(C)c2c(c1)CC(C)(C)CC2=O" , what call appears in the results of this test?
Reply | inactive

Ask | For Cc1ccc([N+](=O)[O-])cc1NC(=O)/C(=N/NC(=S)NN)C1SC(=S)NC1=O (stereo not drawn) , which call appears in the assay record?
Reply | inactive

Ask | What outcome does the record of this test show for "O=C(O)c1cc([N+](=O)[O-])cc2c(=O)c3cnccc3[nH]c12" ?
Reply | inactive

Ask | Hi, do you know how O=S1(=O)CCC(c2ccccc2)C1 (stereo not drawn) came out in this test?
Reply | inactive

Ask | I'd appreciate the recorded outcome for "O=C1c2cccc3cc([N+](=O)[O-])cc(c23)C(=O)N1C(CO)(CO)CO" from this test.
Reply | inactive
